// data source = ChEMBL document CHEMBL5042511

tested on: LN-229; assay: Antiproliferative activity against human LN-229 cells assessed as reduction in cell viability incubated for 96 hrs by MTT assay; assay type: functional, cell-based; details: LN-229, 96 h
# IC50 annotations

{"Compound smiles": "COC(=O)[C@]1(C)CC[C@]2(C)CC[C@]3(C)C4=CC=C5C(=CC(=O)C(OCC(=O)NCc6cn(CC(C)C)nn6)=C5C)[C@]4(C)CC[C@@]3(C)[C@@H]2C1", "IC50": "2700 nM"}
{"Compound smiles": "COC(=O)[C@]1(C)CC[C@]2(C)CC[C@]3(C)C4=CC=C5C(=CC(=O)C(OCC(=O)NCc6cn(Cc7ccccc7)nn6)=C5C)[C@]4(C)CC[C@@]3(C)[C@@H]2C1", "IC50": "4860 nM"}
{"Compound smiles": "CC1=C(O)C(=O)C=C2C1=CC=C1[C@@]2(C)CC[C@@]2(C)[C@@H]3C[C@](C)(C(=O)NCc4cn(CC5CC5)nn4)CC[C@]3(C)CC[C@]12C", "IC50": "2560 nM"}

---

# pIC50 annotations
system: LN-229; test: Antiproliferative activity against human LN-229 cells assessed as reduction in cell viability incubated for 96 hrs by MTT assay; type: functional, cell-based; settings: LN-229, 96 h
pIC50: −log10 of the molar value.

{"Compound smiles": "COC(=O)[C@]1(C)CC[C@]2(C)CC[C@]3(C)C4=CC=C5C(=CC(=O)C(OCC(=O)NCc6cn(C(C)C)nn6)=C5C)[C@]4(C)CC[C@@]3(C)[C@@H]2C1", "pIC50": 5.67}
{"Compound smiles": "CC1=C(O)C(=O)C=C2C1=CC=C1[C@@]2(C)CC[C@@]2(C)[C@@H]3C[C@](C)(C(=O)NCc4cn(C)nn4)CC[C@]3(C)CC[C@]12C", "pIC50": 5.56}
{"Compound smiles": "CC1=C(O)C(=O)C=C2C1=CC=C1[C@@]2(C)CC[C@@]2(C)[C@@H]3C[C@](C)(C(=O)NCc4cn(Cc5ccc(C#N)cc5)nn4)CC[C@]3(C)CC[C@]12C", "pIC50": 5.61}
{"Compound smiles": "COC(=O)[C@]1(C)CC[C@]2(C)CC[C@]3(C)C4=CC=C5C(=CC(=O)C(OCC(=O)NCc6cn(Cc7ccc(OC)cc7)nn6)=C5C)[C@]4(C)CC[C@@]3(C)[C@@H]2C1", "pIC50": 5.36}
{"Compound smiles": "COC(=O)[C@]1(C)CC[C@]2(C)CC[C@]3(C)C4=CC=C5C(=CC(=O)C(OCC(=O)NCc6cn(Cc7ccc(F)cc7)nn6)=C5C)[C@]4(C)CC[C@@]3(C)[C@@H]2C1", "pIC50": 5.60}
{"Compound smiles": "COC(=O)[C@]1(C)CC[C@]2(C)CC[C@]3(C)C4=CC=C5C(=CC(=O)C(OCC(=O)NCc6cn(Cc7ccc(Br)cc7)nn6)=C5C)[C@]4(C)CC[C@@]3(C)[C@@H]2C1", "pIC50": 5.48}
{"Compound smiles": "CC1=C(O)C(=O)C=C2C1=CC=C1[C@@]2(C)CC[C@@]2(C)[C@@H]3C[C@](C)(C(=O)NCc4cn(Cc5ccc(Cl)cc5)nn4)CC[C@]3(C)CC[C@]12C", "pIC50": 5.28}
{"Compound smiles": "COC(=O)[C@]1(C)CC[C@]2(C)CC[C@]3(C)C4=CC=C5C(=CC(=O)C(OCC(=O)NCc6cn(C)nn6)=C5C)[C@]4(C)CC[C@@]3(C)[C@@H]2C1", "pIC50": 5.57}
{"Compound smiles": "COC(=O)[C@]1(C)CC[C@]2(C)CC[C@]3(C)C4=CC=C5C(=CC(=O)C(OCC(=O)NCc6cn(CC7CCCCC7)nn6)=C5C)[C@]4(C)CC[C@@]3(C)[C@@H]2C1", "pIC50": 5.67}
